Attribute: IC50
Molecular target: KRAS G12C (Homo sapiens, UniProt P01116, G12C)
Sequence (P01116 1-188 isoform P01116-2 G12C): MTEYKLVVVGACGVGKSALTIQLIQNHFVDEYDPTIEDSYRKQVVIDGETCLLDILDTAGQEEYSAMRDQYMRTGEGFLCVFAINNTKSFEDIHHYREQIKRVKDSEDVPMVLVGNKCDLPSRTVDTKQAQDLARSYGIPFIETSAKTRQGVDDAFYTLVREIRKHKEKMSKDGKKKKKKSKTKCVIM
Test: GDP-GTP exchange assay (fluorescence based guanine nucleotide exchange, bodipy-GDP for GppNHp, SOS1)
Settings: bodipy-loaded KRAS G12C, 2 hours pre-incubation with inhibitor, read-out: G12C_exchange (KRAS_G12C exchange assay IC50)

C=CC(=O)N1CC(F)(Cn2c(=O)c(=O)n(-c3c(C)ccnc3C(C)C)c3nc(-c4c(F)ccc(C)c4O)c(Cl)cc32)C1 [Example 21] : ≤ 100 nM
[2H]C([2H])(n1c(=O)c(=O)n(-c2c(C)ccnc2C(C)C)c2nc(-c3cccc(Cl)c3Cl)c(Cl)cc21)C1(F)CN(C(=O)C=C)C1 [Example 51] : ≤ 100 nM
C=CC(=O)N1CC(F)(Cn2c(=O)c(=O)n(-c3c(C)ccnc3C(C)C)c3nc(-c4c(O)ccc(F)c4F)c(Cl)cc32)C1 [Example 23] : ≤ 100 nM

Prompt line: What does the record list as IC50 for C=CC(=O)N1CC(F)(Cn2c(=O)c(=O)n(-c3c(C(C)C)ccnc3C(C)C)c3nc(-c4c(Cl)cccc4OC)c(Cl)cc32)C1 [Example 62] ?
Response line: ≤ 100 nM

Prompt line: What does the record list as IC50 for C=CC(=O)N1CC(F)(Cn2c(=O)c(=O)n(-c3c(C(C)C)ccnc3C(C)C)c3nc(-c4c(C)cccc4OC)c(Cl)cc32)C1 [Example 63] ?
Response line: ≤ 100 nM

Prompt line: What does the record list as IC50 for C=CC(=O)N1CC(F)(Cn2c(=O)c(=O)n(-c3c(C)ccnc3C(C)C)c3nc(-c4cccc5nn[nH]c45)c(Cl)cc32)C1 [Example 30] ?
Response line: 100 to 1000 nM

----------
Biological target: KRAS G12C (Homo sapiens, UniProt P01116, G12C)
Test: GDP-GTP exchange assay (fluorescence based guanine nucleotide exchange, bodipy-GDP for GppNHp, SOS1)
Settings: bodipy-loaded KRAS G12C, 2 hours pre-incubation with inhibitor, read-out: G12C_exchange (KRAS_G12C exchange assay IC50)
Experimental: The inhibitor potency of the exemplified compounds was determined in a fluorescence based guanine nucleotide exchange assay, which measures the exchange of bodipy-GDP (fluorescently labeled GDP) for GppNHp (Non-hydrolyzable GTP analog) to generate the active state of KRAS in the presence of SOS1 (guanine nucleotide exchange factor). […] Fluorescence intensities were measured on a PheraStar plate reader instrument (BMG Labtech) with excitation at 485 nm and emission at 520 nm. […]
Outcome Measure: IC50

Prompt line: What does the record list as IC50 for `C=CC(=O)N1CC(F)(Cn2c(=O)c(=O)n(-c3c(C)ccnc3C(C)C)c3nc(-c4ccc(C)cc4F)c(Cl)cc32)C1` ?
Response line: ≤ 100 nM

----------
Attribute: IC50
Target: KRAS G12C (Homo sapiens, UniProt P01116, G12C)
Experiment: GDP-GTP exchange assay (fluorescence based guanine nucleotide exchange, bodipy-GDP for GppNHp, SOS1)
Settings: bodipy-loaded KRAS G12C, 2 hours pre-incubation with inhibitor, read-out: G12C_exchange (KRAS_G12C exchange assay IC50)

[2H]C([2H])(n1c(=O)c(=O)n(-c2c(C)ccnc2C(C)C)c2nc(-c3c(F)ccc(C)c3O)c(Cl)cc21)C1(F)CN(C(=O)C=C)C1 [Example 47] : ≤ 0.1 µM

Prompt line: What does the record list as IC50 for C=CC(=O)N1CC(Cn2c(=O)c(=O)n(-c3c(C(C)C)cccc3C(C)C)c3nc(-c4cccc(F)c4F)c(Cl)cc32)C1 [Example 5] ?
Response line: ≤ 0.1 µM

Prompt line: What does the record list as IC50 for C=CC(=O)N1CCC(n2c(=O)c(=O)n(-c3c(CC)cccc3CC)c3nc(-c4ccccc4F)c(Cl)cc32)CC1 [Example 1] ?
Response line: 5 to 10 µM

Prompt line: What does the record list as IC50 for [2H]C([2H])(n1c(=O)c(=O)n(-c2c(C)ccnc2C(C)C)c2nc(-c3c(O)cc(C)cc3F)c(Cl)cc21)C1(F)CN(C(=O)C=C)C1 [Example 48] ?
Response line: ≤ 0.1 µM

Prompt line: What does the record list as IC50 for C=CC(=O)N1CC(F)(Cn2c(=O)c(=O)n(-c3c(C)ccnc3C(C)C)c3nc(-c4c(F)ccc(O)c4O)c(Cl)cc32)C1 [Example 26] ?
Response line: 0.1 to 1 µM

Prompt line: What does the record list as IC50 for C=CC(=O)N1CC(O)(Cn2c(=O)c(=O)n(-c3c(C)ccnc3C(C)C)c3nc(-c4c(O)ccc(F)c4F)c(Cl)cc32)C1 [Example 45] ?
Response line: ≤ 0.1 µM
